Measured values drawn from PubChem BioAssay AID1259251 for this set.

Would you kindly list inhibition for each of these compounds?
- target entity: Serine/threonine-protein kinase ULK1 (Homo sapiens) (UniProt O75385)
- Sequence (O75385 whole entry, looked up): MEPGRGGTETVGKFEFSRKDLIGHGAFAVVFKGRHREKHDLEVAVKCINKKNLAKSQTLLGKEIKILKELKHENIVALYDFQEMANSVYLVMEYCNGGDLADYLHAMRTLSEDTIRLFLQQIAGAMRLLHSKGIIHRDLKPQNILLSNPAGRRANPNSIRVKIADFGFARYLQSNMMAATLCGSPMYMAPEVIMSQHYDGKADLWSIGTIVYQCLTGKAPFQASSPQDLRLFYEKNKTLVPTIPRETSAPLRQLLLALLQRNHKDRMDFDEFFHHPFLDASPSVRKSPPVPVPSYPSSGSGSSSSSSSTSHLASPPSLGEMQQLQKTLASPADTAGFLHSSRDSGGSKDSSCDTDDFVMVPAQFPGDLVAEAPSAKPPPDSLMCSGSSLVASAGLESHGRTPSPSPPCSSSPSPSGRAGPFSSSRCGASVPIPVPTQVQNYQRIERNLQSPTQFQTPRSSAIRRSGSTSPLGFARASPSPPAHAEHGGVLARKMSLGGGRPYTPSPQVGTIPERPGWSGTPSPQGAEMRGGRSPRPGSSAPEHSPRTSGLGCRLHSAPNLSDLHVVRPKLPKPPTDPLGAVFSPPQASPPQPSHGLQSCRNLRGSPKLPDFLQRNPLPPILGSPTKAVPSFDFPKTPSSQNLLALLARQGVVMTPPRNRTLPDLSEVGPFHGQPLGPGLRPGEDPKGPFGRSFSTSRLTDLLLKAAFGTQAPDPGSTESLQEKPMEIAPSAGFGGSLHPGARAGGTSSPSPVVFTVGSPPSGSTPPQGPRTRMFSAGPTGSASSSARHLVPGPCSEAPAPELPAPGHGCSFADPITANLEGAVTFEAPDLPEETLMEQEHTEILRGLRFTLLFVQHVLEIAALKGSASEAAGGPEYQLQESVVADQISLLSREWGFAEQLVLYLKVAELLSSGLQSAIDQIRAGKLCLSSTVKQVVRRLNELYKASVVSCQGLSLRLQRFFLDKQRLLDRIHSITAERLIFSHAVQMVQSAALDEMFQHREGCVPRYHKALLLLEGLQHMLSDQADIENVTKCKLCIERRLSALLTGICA
- assay details: inhibition of human autophagy kinase ULK1 – biochemical, AlphaScreen, primary screen (AID 1259251);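 also: 0% = median of compound wells and 100% = no enzyme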
- test parameters: AlphaScreen Atg13 phosphorylation by ULK1, luminescence; at 5.96 µM; active compounds read high
Out of some 30,000 compounds screened, about 580 (1.9%) were called active. The full list was thinned out, with actives kept by preference.
Numbers only, in %.

INSERT INTO assay_data (compound, observed_property, unit_symbol, test_result) VALUES
  ('Cc1ncc2c(NCCCN3CCOCC3)nc3ccccc3n12', 'inhibition', '%', 12.3),
  ('FC(F)(F)c1cnc(Nc2ccc(N3CCOCC3)cc2)cc1-n1ncc2ccccc21', 'inhibition', '%', 2.76),
  ('c1cc(-c2ocnc2-c2ncco2)cc(Nc2ccc(N3CCOCC3)cc2)n1', 'inhibition', '%', -5.51),
  ('Cc1ccc(-c2ncn(-c3ccc(Nc4nccc(-c5cc(C#N)cc(N6CCCC(O)C6)c5)n4)cc3)n2)cn1 (stereo unspecified)', 'inhibition', '%', 0.75),
  ('C/C(CC(=O)NC1CCCC1)=N\NC(=O)COc1cccc(C)c1', 'inhibition', '%', -34.7),
  ('CNC(=O)c1ccccc1Nc1cc(NC(=O)Cc2ccc([N+](=O)[O-])cc2)ncc1C(F)(F)F', 'inhibition', '%', 40.8),
  ('Cn1cc(-c2cc(Nc3ccc(N4CCOCC4)cn3)ncc2Cl)cn1', 'inhibition', '%', 53.2),
  ('CCCNc1nc(-c2cccc(C(C)=O)c2)nc2c1ncn2-c1ccccc1', 'inhibition', '%', -6.8);

Give one value of inhibition per listed compound.
1. COC(c1ccccc1)(c1ccccc1)C(Oc1nc(C)cc(C)n1)C(=O)O (stereo unspecified)
2. COc1ccc(-c2nc(NCCN3CCOCC3)c3ncn(-c4ccccc4)c3n2)cn1
3. CC(C)(C)NC(=O)N1CCCN(c2ccc(S(C)(=O)=O)cc2)CC1
4. CC(C)N(CCNc1ccnc(Nc2ncccn2)n1)C(C)C
5. c1ccc(Oc2cc(NC3CC3)ncn2)cc1
6. CC(=O)c1cccc(-c2nc3ncnc(NCc4nc5ccccc5[nH]4)c3[nH]2)c1

Result:
[5.25, -16.5, 6.31, -7.14, 4.64, -5.39]

Kindly give each listed record's inhibition.
1. c1ccc(-n2cnc(-c3ccnc(Nc4ccc(N5CCOCC5)cc4)c3)n2)cc1
2. CC(C)N(CCNC(=O)c1ccnc(Nc2ccc(C(F)(F)F)cc2)c1)C(C)C
3. COc1cc(Nc2nc(NCc3cccc(C(F)(F)F)c3)c3[nH]cnc3n2)cc(OC)c1OC

Result:
1. -3.17
2. -25.3
3. 47.7

###

- target entity: Serine/threonine-protein kinase ULK1 (Homo sapiens) (UniProt O75385)
- assay details: inhibition of human autophagy kinase ULK1 – biochemical, AlphaScreen, primary screen (AID 1259251);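 also: 0% = median of compound wells and 100% = no enzyme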
- test parameters: AlphaScreen Atg13 phosphorylation by ULK1, luminescence; at 5.96 µM
Hit rate of the full screen: of about 30,000 compounds, about 580 (1.9%) were called active. No stated cut-off is given here; in the data, active means inhibition above about 43%; inactive means the rest. Shown is part of a subset that was picked to be rich in actives.
Your reply should match one of these outcome classes. active, inactive

Worked examples, 5 compounds total:
INSERT INTO assay_data (compound, class_name) VALUES
  ('COc1ccc(CCNC(=O)c2cnc(-c3cccs3)s2)cc1', 'inactive'),
  ('Cc1ncn(-c2ccc(Nc3ncc(-c4cnn(C)c4)c(-c4cnn(C)c4)n3)cc2)n1', 'inactive'),
  ('COc1ccc(Cl)cc1NC(=O)COc1cccc2c1OC(C)(C)C2', 'inactive'),
  ('OCC1CCCN1c1nc(NC2CCN(Cc3ccccc3)CC2)c2ncn(Cc3ccc(C(F)(F)F)cc3)c2n1 (centres undefined)', 'inactive'),
  ('CC(C)c1nc2ccc(-c3ccnn3C)cc2c(=O)[nH]1', 'inactive');

Ask: Fill in: this test's call for `COc1nc(Nc2ccccc2)nc(-c2ccc(C(=O)NC3CC3)cc2)n1` is ___
Result: inactive

Ask: Called result for `COc1cccc(CN(CCN(C)C)C(=O)c2cn3cc(-c4ccnc(N)n4)ccc3n2)c1`
Result: inactive

Ask: Field: outcome | Entry: `CCCNc1nc(NCc2cccnc2)nc2c1ncn2Cc1ccc(C(F)(F)F)cc1`
Result: inactive

Ask: Assay result, entry `CCCNC(=O)c1ccc2nc(-c3c(C)nn(C)c3C)sc2c1` — outcome?
Result: inactive

Ask: Would you mind telling me which call this test gave `O=C1NC(=S)NC(=O)C1=Cc1ccc(-c2ccc([N+](=O)[O-])c(Cl)c2)o1` ?
Result: inactive

Ask: Record lookup: outcome of this test for `Cc1nc(C)n(-c2ccc(Nc3ncc4ccc(-c5cnn(C)c5)cc4n3)cc2)n1` ?
Result: active

Ask: Any idea what this test logged for `Cc1cnc(-c2c(C)noc2C)nc1Nc1ccc(N2CCOCC2)cc1` ?
Result: inactive

###

- target entity: Serine/threonine-protein kinase ULK1 (Homo sapiens)
- assay details: inhibition of human autophagy kinase ULK1 – biochemical, AlphaScreen, primary screen (AID 1259251);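 also: 0% = median of compound wells and 100% = no enzyme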
- test parameters: AlphaScreen Atg13 phosphorylation by ULK1, luminescence; at 5.96 µM; active compounds read high
Screen size: about 30,000 compounds; about 580 (1.9%) were called active. Only a selection was taken, and actives are over-represented in it overall.
Classify as follows. Reported inhibition greater than or equal to -10%: yes. Reported inhibition below: no.

A selection of reference data follows.
INSERT INTO measurements (compound, class_name) VALUES
  ('CN(C)c1cc(F)cc(-c2ccnc(Nc3ccc(-n4cnc(N5CCOCC5)n4)cc3)n2)c1', 'no'),
  ('Cn1cc(-c2cc(Nc3ccc(-n4cnc(N5CCC(O)CC5)n4)cc3)ncc2Cl)cn1', 'no'),
  ('COc1cc2nc(-c3csc4ccccc34)nc(Nc3ccc(Oc4ccccc4)cc3)c2cc1OC', 'no'),
  ('CC(C)(C)c1ccc(S(=O)(=O)NCc2nc(-c3ccncc3)n[nH]2)cc1', 'yes');

Moving on to another compound below.
Ask: Item O=C(NCCc1cccnc1)c1ccc2c(c1)CC(c1nc3ccc(-c4cn[nH]c4)cc3c(=O)[nH]1)CO2 (stereo not given) with inhibition of -10% or above?
Result: yes

###

- target entity: Serine/threonine-protein kinase ULK1 (Homo sapiens) (UniProt O75385)
- assay details: inhibition of human autophagy kinase ULK1 – biochemical, AlphaScreen, primary screen (AID 1259251);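 also: 0% = median of compound wells and 100% = no enzyme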
- test parameters: AlphaScreen Atg13 phosphorylation by ULK1, luminescence; at 5.96 µM; active compounds read high
About 580 (1.9%) of roughly 30,000 compounds were called active. This is one part of a sample in which actives are shown more often than they occur.
observed property: inhibition (%)
One number for each entry, in %.

Record excerpt, results attached:
INSERT INTO measurements (molecule, observed_property, unit_symbol, test_result) VALUES
  ('Oc1ccc(CCNc2nc(Nc3ccncn3)nc3c2ncn3C2CCCCC2)cc1', 'inhibition', '%', 14.6),
  ('COC(=O)c1ccc(C2Nc3c(C(=O)OC)cccc3C3C=CCC32)cc1 (stereo unspecified)', 'inhibition', '%', 7.56),
  ('COC(=O)c1ccc(Cn2c(-c3nnc(CC(C)C)o3)cc3ccccc32)o1', 'inhibition', '%', -10);

Parameter requested: inhibition. Apply to each item below.
1. Cc1nn(C)c(C)c1-c1nc2ccc(C(=O)NCCO)cc2s1
2. O=C(Nc1ccc(N2CCOCC2)cc1)c1ccc2nc(Nc3ccncc3)sc2c1
3. O=C(Nc1ccc(N2CCOCC2)cc1)c1csc(Nc2ccc(-n3ccnc3)cc2)n1
4. CC(C)N(CCNC(=O)Cc1cn(-c2ccc(Nc3ccc(N4CCOCC4)cc3)nn2)c2ccccc12)C(C)C

Result:
1: 1.9; 2: 52.9; 3: 47.9; 4: 5.92

###

Please go through the items and note down their inhibition.
- target entity: Serine/threonine-protein kinase ULK1 (Homo sapiens) (UniProt O75385)
- assay details: inhibition of human autophagy kinase ULK1 – biochemical, AlphaScreen, primary screen (AID 1259251);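 also: 0% = median of compound wells and 100% = no enzyme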
- test parameters: AlphaScreen Atg13 phosphorylation by ULK1, luminescence; at 5.96 µM; active compounds read high
Among all 30,000 compounds or so, about 580 (1.9%) were called active. The sample holds actives, similar compounds and a random draw of the others, so the mix is not that of the screen.
Answers are plain numbers, in %.

Examples with answers:
INSERT INTO assay_data (compound_smiles, observed_property, test_result) VALUES
  ('c1coc(-c2ccc3cnc(Nc4ccc(-n5cnc(N6CCOCC6)n5)cc4)nc3c2)n1', 'inhibition', 3.23),
  ('CC(C)N(CCNC(=O)C1CCN(c2ccc(Nc3ccccc3)nn2)CC1)C(C)C', 'inhibition', 0.63),
  ('CCCN1CCc2c(sc(N)c2C(=O)OC)C1', 'inhibition', 7.44),
  ('Cc1ncccc1-c1ncn(-c2ccc(Nc3nccc(-c4cc(F)cc(N5CCOCC5)c4)n3)cc2)n1', 'inhibition', 5.38);

Please turn your attention to the following entry.
Ask: Fill in the blank: the reported inhibition of `Cn1cc(-c2ccc3cnc(Nc4ccc(-n5cnc(N6CCOCC6)n5)cc4)nc3c2-c2cnn(C)c2)cn1` is ____.
Result: 51.5
